test system: Staphylococcus aureus; assay: Antibacterial activity against Staphylococcus aureus MTCC 3160 assessed as growth inhibition after 18 hrs by CLSI microdilution broth assay; type: functional; settings: MTCC 3160, 18 h
Where a SMILES comes first, the peptide text is derived from it. [ ]: non-standard residue; d: D form. 3Abz = Nc1cccc(C(=O)O)c1; Orn = NCCC[CH](N)C(=O)O
testReadout: MIC
Answer format reminder: number followed by unit.

compound: N=C(N)NCCCC(NC(=O)C(Cc1c[nH]c2ccccc12)NC(=O)c1cccc(NC(=O)C(CCCNC(=N)N)NC(=O)C(N)Cc2c[nH]c3ccccc23)c1)C(N)=O (centres undefined) (H-WR[3Abz]WR-NH2; configuration not given here)
testReadout: MIC
result: 60 µg/mL

compound: N=C(N)NCCCC(N)C(=O)NC(Cc1c[nH]c2ccccc12)C(=O)Nc1cccc(C(=O)NC(CCCNC(=N)N)C(=O)NC(CCCNC(=N)N)C(N)=O)c1 (centres undefined) (H-RW[3Abz]RR-NH2; configuration not given here)
testReadout: MIC
result: 70 µg/mL

compound: NCCCC(NC(=O)C(Cc1ccccc1)NC(=O)c1cccc(NC(=O)C(Cc2ccccc2)NC(=O)C(CCCN)NC(=O)C(N)Cc2ccccc2)c1)C(N)=O (centres undefined) (H-F[Orn]F[3Abz]F[Orn]-NH2; configuration not given here)
testReadout: MIC
result: 150 µg/mL

Please examine the following record next.
*Q* Query the reported MIC for Staphylococcus aureus; item: NCCCC(N)C(=O)NC(Cc1c[nH]c2ccccc12)C(=O)NC(Cc1c[nH]c2ccccc12)C(=O)Nc1cccc(C(=O)NC(CCCN)C(=O)NC(CCCN)C(N)=O)c1 (centres undefined) (H-[Orn]WW[3Abz][Orn][Orn]-NH2; configuration not given here)
*A* 50 µg/mL

Values were extracted from ChEMBL document CHEMBL3286351.
